Test system: Saccharomyces cerevisiae;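 further: PSI is a weighted mean of sequencing reads over stability bins, variants kept only with over 10 reads, mCherry proximal and sfGFP distal, peptide attached via GGGS linker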
protocol: protein stability index of tFT-peptide fusion (C-terminal peptide) (PSI (0-1 scale)); higher = more stable (slower turnover)
testParameters: genetic background: das1 deletion; temperature: 37 C
endpointName: protein stability index
Give bare numbers.

// known answers, use as guide
monomerSequence	endpointName	testValue
VTWNFIVYVCCF	protein stability index	0.258
CLLLFFIFLLFL	protein stability index	0.463
SWGRGADRWRRA	protein stability index	0.727
DRYSFYGYVVVL	protein stability index	0.662
RGWWWFVVVLCR	protein stability index	0.316

Attention now turns to another entry.
Q: What value of measured protein stability index is listed for GAVRRWGWVSFV ?
Ans: 0.744
